B1: PhoQ; a variant is named by its letters at X, in order, P23837 (parent)
chain: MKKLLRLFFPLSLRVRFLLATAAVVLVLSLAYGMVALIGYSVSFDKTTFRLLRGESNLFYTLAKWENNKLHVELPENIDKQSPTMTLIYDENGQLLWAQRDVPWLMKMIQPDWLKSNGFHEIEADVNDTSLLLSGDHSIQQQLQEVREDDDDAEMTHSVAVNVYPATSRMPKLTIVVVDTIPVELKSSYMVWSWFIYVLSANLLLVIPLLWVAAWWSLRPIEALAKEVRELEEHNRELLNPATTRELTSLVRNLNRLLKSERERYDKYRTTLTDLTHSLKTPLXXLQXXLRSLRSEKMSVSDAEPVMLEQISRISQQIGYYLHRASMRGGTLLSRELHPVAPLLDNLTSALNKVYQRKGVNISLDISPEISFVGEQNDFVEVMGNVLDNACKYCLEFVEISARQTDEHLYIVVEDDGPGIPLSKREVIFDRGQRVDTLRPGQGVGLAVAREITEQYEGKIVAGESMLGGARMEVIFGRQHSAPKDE

# Variants of: B1
# MEASUREMENT_DESCRIPTION: enrichment ratio after two sorts for PhoP signalling (ratio (wild type AVST 3.29)); higher = more functional
# EXPERIMENTAL_PARAMETERS: with PhoP (E. coli)
The full ranking holds about 140,000 sequences; the median of “enrichment ratio after two sorts for PhoP signalling” is about 0, and the highest 2% start at about 11. The list comes from a sample in which the highest values are over-represented; it also holds close analogues and randomly drawn sequences.
The reader will find reported enrichment ratio values listed item by item below.
ASSAY_READOUT: enrichment ratio

[[record]]
mutation_code = "MHVR"
measurement = "≤ 0.25"

[[record]]
mutation_code = "HDSR"
measurement = "≤ 0.25"

[[record]]
mutation_code = "RVFY"
measurement = "≤ 0.25"

[[record]]
mutation_code = "FEMI"
measurement = 13

[[record]]
mutation_code = "ESLL"
measurement = 0.525

[[record]]
mutation_code = "GKQD"
measurement = "≤ 0.25"

[[record]]
mutation_code = "PVCS"
measurement = "≤ 0.25"

[[record]]
mutation_code = "CCSC"
measurement = "≤ 0.25"

[[record]]
mutation_code = "TMWL"
measurement = "≤ 0.25"

[[record]]
mutation_code = "MTGI"
measurement = 11.7

[[record]]
mutation_code = "VECH"
measurement = 24.1

[[record]]
mutation_code = "MMGN"
measurement = "≤ 0.25"

[[record]]
mutation_code = "QDSF"
measurement = "≤ 0.25"

[[record]]
mutation_code = "IAGV"
measurement = "≤ 0.25"

[[record]]
mutation_code = "SNSE"
measurement = 16.4

[[record]]
mutation_code = "SESV"
measurement = 16.9

[[record]]
mutation_code = "NKTY"
measurement = "≤ 0.25"

[[record]]
mutation_code = "AIRA"
measurement = "≤ 0.25"

[[record]]
mutation_code = "SLSV"
measurement = 7.73

[[record]]
mutation_code = "PRVI"
measurement = "≤ 0.25"

[[record]]
mutation_code = "TCCH"
measurement = 7.95

[[record]]
mutation_code = "KAWY"
measurement = "≤ 0.25"

[[record]]
mutation_code = "ANHA"
measurement = "≤ 0.25"

[[record]]
mutation_code = "SISE"
measurement = 12.6

[[record]]
mutation_code = "LNSE"
measurement = "≤ 0.25"

[[record]]
mutation_code = "AQQG"
measurement = 12.7

[[record]]
mutation_code = "NSCR"
measurement = "≤ 0.25"

[[record]]
mutation_code = "QMAQ"
measurement = "≤ 0.25"

[[record]]
mutation_code = "TMHL"
measurement = 11.6

[[record]]
mutation_code = "RWMS"
measurement = "≤ 0.25"

[[record]]
mutation_code = "GNSC"
measurement = 12.1

[[record]]
mutation_code = "HECH"
measurement = 12.7

[[record]]
mutation_code = "DDSV"
measurement = "≤ 0.25"

[[record]]
mutation_code = "GMCH"
measurement = 16.1

[[record]]
mutation_code = "TDYD"
measurement = "≤ 0.25"

[[record]]
mutation_code = "GELS"
measurement = 8.59

[[record]]
mutation_code = "SLQG"
measurement = "≤ 0.25"

[[record]]
mutation_code = "SQSE"
measurement = 11.4

[[record]]
mutation_code = "FTPA"
measurement = 0.426

[[record]]
mutation_code = "SEQG"
measurement = 17.8

[[record]]
mutation_code = "FHSF"
measurement = "≤ 0.25"

[[record]]
mutation_code = "FYVQ"
measurement = "≤ 0.25"

[[record]]
mutation_code = "HECI"
measurement = 6.73

[[record]]
mutation_code = "VDVG"
measurement = "≤ 0.25"

[[record]]
mutation_code = "TQSV"
measurement = 20.7

[[record]]
mutation_code = "FEMW"
measurement = "≤ 0.25"

[[record]]
mutation_code = "GELA"
measurement = 18.1

[[record]]
mutation_code = "PVCA"
measurement = "≤ 0.25"

[[record]]
mutation_code = "GKHW"
measurement = "≤ 0.25"

[[record]]
mutation_code = "QNII"
measurement = "≤ 0.25"

[[record]]
mutation_code = "SQQG"
measurement = 6.66

[[record]]
mutation_code = "TITY"
measurement = "≤ 0.25"

[[record]]
mutation_code = "FPYE"
measurement = "≤ 0.25"

[[record]]
mutation_code = "GMMH"
measurement = "≤ 0.25"

[[record]]
mutation_code = "GLDQ"
measurement = "≤ 0.25"

[[record]]
mutation_code = "ANGI"
measurement = 22.1

[[record]]
mutation_code = "DTDV"
measurement = "≤ 0.25"

[[record]]
mutation_code = "FCMI"
measurement = 33.7

[[record]]
mutation_code = "DGQH"
measurement = "≤ 0.25"

[[record]]
mutation_code = "NAGN"
measurement = "≤ 0.25"

[[record]]
mutation_code = "YQQR"
measurement = "≤ 0.25"

[[record]]
mutation_code = "LKHW"
measurement = "≤ 0.25"

[[record]]
mutation_code = "FTMI"
measurement = 13.1

[[record]]
mutation_code = "VDWL"
measurement = "≤ 0.25"

[[record]]
mutation_code = "TMGL"
measurement = 7.75

[[record]]
mutation_code = "NVSV"
measurement = "≤ 0.25"

[[record]]
mutation_code = "TVSE"
measurement = 14.1

[[record]]
mutation_code = "YTMI"
measurement = 6.21

[[record]]
mutation_code = "VLSV"
measurement = "≤ 0.25"

[[record]]
mutation_code = "HYMK"
measurement = "≤ 0.25"

[[record]]
mutation_code = "SNSG"
measurement = 10.7

[[record]]
mutation_code = "MNVA"
measurement = "≤ 0.25"

[[record]]
mutation_code = "NSMI"
measurement = 2.19

[[record]]
mutation_code = "VYMI"
measurement = "≤ 0.25"

[[record]]
mutation_code = "QGLS"
measurement = 3.82

[[record]]
mutation_code = "QMLS"
measurement = "≤ 0.25"

[[record]]
mutation_code = "HRMH"
measurement = "≤ 0.25"

[[record]]
mutation_code = "GNSE"
measurement = "≤ 0.25"

[[record]]
mutation_code = "LDNH"
measurement = "≤ 0.25"

[[record]]
mutation_code = "NVSE"
measurement = "≤ 0.25"

[[record]]
mutation_code = "PAGS"
measurement = "≤ 0.25"

[[record]]
mutation_code = "HEPW"
measurement = "≤ 0.25"

[[record]]
mutation_code = "AGFP"
measurement = "≤ 0.25"

[[record]]
mutation_code = "ELMR"
measurement = "≤ 0.25"

[[record]]
mutation_code = "SGSE"
measurement = 15.4

[[record]]
mutation_code = "HECF"
measurement = "≤ 0.25"

[[record]]
mutation_code = "SDSE"
measurement = "≤ 0.25"

[[record]]
mutation_code = "LNSK"
measurement = "≤ 0.25"

[[record]]
mutation_code = "GGSE"
measurement = "≤ 0.25"

[[record]]
mutation_code = "AWLG"
measurement = "≤ 0.25"

[[record]]
mutation_code = "WDAF"
measurement = "≤ 0.25"

